protocol: Cytotoxicity analysis (Cell Counting kit-8), RAW264.7
Format: cell-based
protocol conditions: mouse, RAW264.7 cells, CCK-8
measure name: CC50 at 48 h
Please format your answer as a value with the unit trailing.

Per the record, CN1CCN(c2ccc(C(=O)Nc3n[nH]c4ccc(Cc5cc(F)cc(F)c5)cc34)c(NC3CCOCC3)c2)CC1 has CC50 at 48 h of 13.2 µM

====

Tested on: DENV2 (Tr1751)
protocol: Infection assay with DENV2 in A549 cells (qRT-PCR)
Type: cell-based
protocol conditions: Dengue virus; A549 cells, 48 h, DENV2 RNA by qRT-PCR; read-out: EC50 inhibition of DENV2 infection
measure name: pEC50
Schema: pEC50 number; meaning minus log10 of the concentration expressed in molar units.

Per the record, CN1CCN(c2ccc(C(=O)Nc3n[nH]c4ccc(Cc5cc(F)cc(F)c5)cc34)c(NC3CCOCC3)c2)CC1 [RAI-13, Entrectinib] has pEC50 of 5.61

====

protocol: Cytotoxicity analysis (Cell Counting kit-8), A549
Format: cell-based
protocol conditions: human, A549 cells, CCK-8
measure name: CC50 at 48 h (µM)
Answer with a number only, understood to be in µM.

Per the record, CN1CCN(c2ccc(C(=O)Nc3n[nH]c4ccc(Cc5cc(F)cc(F)c5)cc34)c(NC3CCOCC3)c2)CC1 has CC50 at 48 h of 20.8

====

Tested on: hNV-RdRp
protocol: hNV-RdRp inhibition assay (PicoGreen dsRNA formation)
Type: biochemical, Norovirus GII.4 Sydney 2012
protocol conditions: dose response, two-fold dilutions
measure name: pIC50
Schema: pIC50 number; meaning minus log10 of the concentration expressed in molar units.

[[record]]
molecule = "Cc1ccc(NC(=O)Nc2cc(C(F)(F)F)ccc2F)cc1Nc1ccc2c(c1)NC(=O)/C2=C\\c1ccc[nH]1"
test_result = 4.34

[[record]]
molecule = "O=c1[nH]c2ccccc2n1C1CCN(Cc2ccc(-c3nc4cc5[nH]cnc5cc4nc3-c3ccccc3)cc2)CC1"
test_result = 4.33


Please find the next compound below.
Per the record, CN1CCN(c2ccc(C(=O)Nc3n[nH]c4ccc(Cc5cc(F)cc(F)c5)cc34)c(NC3CCOCC3)c2)CC1 has pIC50 of 4.33
